Target: aggrecanase-1 (Homo sapiens, UniProt O75173)
Sequence (O75173 213-837, species assumed): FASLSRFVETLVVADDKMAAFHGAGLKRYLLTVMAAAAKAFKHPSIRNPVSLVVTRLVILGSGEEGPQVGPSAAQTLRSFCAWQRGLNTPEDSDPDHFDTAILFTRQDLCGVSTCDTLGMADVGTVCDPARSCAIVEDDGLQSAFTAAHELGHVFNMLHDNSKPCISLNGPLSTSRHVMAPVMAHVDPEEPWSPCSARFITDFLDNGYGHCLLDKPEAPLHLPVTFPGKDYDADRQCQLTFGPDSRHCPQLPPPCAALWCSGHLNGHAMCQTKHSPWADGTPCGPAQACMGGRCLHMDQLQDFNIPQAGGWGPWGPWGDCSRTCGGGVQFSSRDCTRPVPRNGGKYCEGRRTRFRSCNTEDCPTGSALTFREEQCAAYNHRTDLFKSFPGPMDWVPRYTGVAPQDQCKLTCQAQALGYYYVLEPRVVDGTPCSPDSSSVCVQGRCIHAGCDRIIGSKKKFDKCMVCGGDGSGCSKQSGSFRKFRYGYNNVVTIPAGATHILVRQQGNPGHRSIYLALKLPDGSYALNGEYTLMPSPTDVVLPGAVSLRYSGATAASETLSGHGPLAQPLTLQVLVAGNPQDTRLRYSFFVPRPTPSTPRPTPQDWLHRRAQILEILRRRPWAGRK
Test: Aggrecanase-1 inhibitory action (Particle Assay, GAG release from aggrecan-containing polyacrylamide particles)
Assay type: biochemical
Conditions: Experimental Example 1; read-out: IC50 AG1
pIC50: −log10 of the molar value.

- compound: "CC1[C@H](c2ccccc2)[C@]1(NS(=O)(=O)N1CCN(c2ccc(Br)cc2)CC1)C(=O)O (stereo partly drawn)"
  pIC50: "> 6.00"
- compound: "CC1[C@H](c2ccccc2)[C@]1(NS(=O)(=O)c1ccc(-c2cn3ccccc3n2)s1)C(=O)O (stereo partly drawn)"
  pIC50: "> 6.00"
- compound: "O=C(c1ccc(Cl)cc1)c1ccc(S(=O)(=O)N[C@@]2(C(=O)O)C[C@@H]2c2ccccc2)s1"
  pIC50: "≤ 6.00"
- compound: "CC1(c2ccc(F)cc2)CC1(NS(=O)(=O)c1ccc(-c2cc(C(F)(F)F)on2)s1)C(=O)O (stereo not drawn) [Example 2-340]"
  pIC50: "> 6.00"
- compound: "Cc1cc(C2CC2(NS(=O)(=O)c2ccc(-c3cc(C(F)(F)F)on3)s2)C(=O)O)no1 (stereo not drawn) [Example 2-313]"
  pIC50: "> 6.00"
- compound: "CC1[C@H](c2ccccc2)[C@]1(NS(=O)(=O)c1ccc2c(c1)Cc1cc(Br)ccc1-2)C(=O)O (stereo partly drawn)"
  pIC50: "> 7.00"

====

Target: Recombinant Human MMP-13 (Homo sapiens)
Construct: purchased R&D systems 511-MM
Assay: MMP-13 inhibitory activity (MMP-13 specific fluorescent substrate with quencher)
Assay type: biochemical
Conditions: Experimental Example 3; read-out: IC50 MMP13
pIC50: −log10 of the molar value.

- compound: "O=C(NO)C1(NS(=O)(=O)c2ccc(-c3cc(C(F)(F)F)on3)s2)C2Cc3ccccc3C21 (stereo not shown)"
  pIC50: "> 7.00"
- compound: "O=C(O)C1(NS(=O)(=O)c2ccc(-c3cc(C(F)(F)F)on3)o2)C2CCCc3ccccc3C21 (stereo not shown)"
  pIC50: "≤ 6.00"
- compound: "O=C(NCC1(c2ccccc2)CC1(NS(=O)(=O)c1ccc(-c2ccc(Cl)cc2)s1)C(=O)O)[C@@H]1CCCO1 (stereo partly shown)"
  pIC50: "> 6.00"
- compound: "CC1[C@H](c2ccccc2)[C@]1(NS(=O)(=O)N1CCC(OCc2cccc(Cl)c2)C1)C(=O)O (stereo partly shown)"
  pIC50: "≤ 6.00"
- compound: "C[C@]1(c2ccccc2)C[C@@]1(NS(=O)(=O)c1ccc(-c2cc(C(F)F)no2)s1)C(=O)O"
  pIC50: "> 6.00"
- compound: "CC1[C@H](c2ccccc2)[C@]1(NS(=O)(=O)c1ccc(-n2cc(C(=O)O)cn2)s1)C(=O)O (stereo partly shown)"
  pIC50: "> 7.00"
- compound: "CC1(c2cccc(Cl)c2)CC1(NS(=O)(=O)c1ccc(-c2cc(C(F)(F)F)on2)s1)C(=O)O (stereo not shown)"
  pIC50: "≤ 6.00"
- compound: "O=C(O)C1(NS(=O)(=O)c2ccc(-c3cc(C(F)(F)F)on3)s2)CC1c1cccc(CO)c1 (stereo not shown)"
  pIC50: "> 7.00"
- compound: "CC1[C@H](c2ccccc2)[C@]1(NS(=O)(=O)N1Cc2ccc(O)cc2C1)C(=O)O (stereo partly shown)"
  pIC50: "≤ 6.00"
- compound: "C[C@]1(c2cccc(F)c2)C[C@@]1(NS(=O)(=O)c1ccc(-c2cc(C(F)(F)F)on2)s1)C(=O)O"
  pIC50: "> 6.00"
- compound: "C[C@]1(c2ccccc2)C[C@@]1(NS(=O)(=O)c1ccc(-c2cc(Cl)cc(Cl)c2)s1)C(=O)O"
  pIC50: "≤ 6.00"
- compound: "CCNC(=O)NCC1(c2ccccc2)CC1(NS(=O)(=O)c1ccc(-c2ccc(Cl)cc2)s1)C(=O)O (stereo not shown)"
  pIC50: "> 6.00"
- compound: "CC1[C@H](c2ccccc2)[C@]1(NS(=O)(=O)c1ccc(-c2ccc3nonc3c2)s1)C(=O)O (stereo partly shown)"
  pIC50: "> 6.00"

====

Molecular target: Recombinant Human MMP-13 (Homo sapiens, UniProt P45452)
Construct: purchased R&D systems 511-MM
Assay: MMP-13 inhibitory activity (MMP-13 specific fluorescent substrate with quencher)
Type: biochemical
Details: Experimental Example 3; read-out: IC50 MMP13
pIC50: −log10 of the molar value.
The entries below come with measured pIC50 values attached.

- compound: "COCC1(c2ccccc2)CC1(NS(=O)(=O)c1ccc(-c2ccc(Cl)cc2)s1)C(=O)O (stereo not shown)"
  pIC50: "> 6.00"
- compound: "CC1C(NS(=O)(=O)c2ccc(-c3cc(C(F)(F)F)on3)s2)(C(=O)O)C1(C)c1ccccc1 (stereo not shown) [Example 2-597]"
  pIC50: "≤ 5.00"
- compound: "CC1[C@H](c2ccccc2)[C@]1(NS(=O)(=O)N1CCN(C/C=C/c2ccccc2)CC1)C(=O)O (stereo partly shown)"
  pIC50: "≤ 6.00"
- compound: "O=C(O)C1(NS(=O)(=O)c2ccc(-c3ccc(Cl)cc3)s2)C2CCC(O)c3ccccc3C21 (stereo not shown) [Example 2-412]"
  pIC50: "> 7.00"
- compound: "CC1[C@H](c2ccccc2)[C@]1(NS(=O)(=O)N1CCN(c2ccc(Cl)cc2)CC1)C(=O)O (stereo partly shown)"
  pIC50: "> 7.00"
- compound: "C[C@]1(c2ccccc2)C[C@@]1(NS(=O)(=O)c1ccc(-c2ccc(Cl)cc2Cl)s1)C(=O)O"
  pIC50: "≤ 6.00"
- compound: "CC1[C@H](c2ccccc2)[C@]1(NS(=O)(=O)c1ccc(-c2cc(C(C)(F)F)on2)s1)C(=O)O (stereo partly shown)"
  pIC50: "> 7.00"

====

Target: MMP-1 (Homo sapiens)
Sequence (P03956 100-469): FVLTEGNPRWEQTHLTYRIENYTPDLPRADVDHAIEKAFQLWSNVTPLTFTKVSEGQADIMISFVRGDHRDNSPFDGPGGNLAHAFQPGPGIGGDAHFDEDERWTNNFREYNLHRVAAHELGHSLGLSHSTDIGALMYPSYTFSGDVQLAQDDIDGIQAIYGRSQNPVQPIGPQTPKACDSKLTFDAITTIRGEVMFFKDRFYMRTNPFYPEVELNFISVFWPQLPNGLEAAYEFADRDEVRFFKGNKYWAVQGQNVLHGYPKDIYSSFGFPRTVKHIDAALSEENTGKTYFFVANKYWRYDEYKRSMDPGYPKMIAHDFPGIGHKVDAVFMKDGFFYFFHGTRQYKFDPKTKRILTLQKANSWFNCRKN
Assay: MMP-1 inhibitory action (Type I collagen Activity Measurement kit, FITC-labeled collagen type I)
Assay type: biochemical
Details: MMP-1 inhibitory action, FITC-labeled collagen type I, 37° C. for 3 hr; read-out: IC50 MMP1 (Experimental Example 2)

- molecule: "O=C(Nc1cccc(C2CC2(NS(=O)(=O)c2ccc(-c3ccc(Cl)cc3)cc2)C(=O)O)c1)c1ccncc1 (centres unmarked)"
  IC50: "≥ 1000 nM"
- molecule: "O=C(O)C1(NS(=O)(=O)c2ccc(-c3ccc(Cl)cc3)s2)CC1c1cccc(O)c1 (centres unmarked)"
  IC50: "≥ 1000 nM"
- molecule: "NCc1ccc(C2CC2(NS(=O)(=O)c2ccc(-c3ccc(Cl)cc3)s2)C(=O)O)cc1 (centres unmarked)"
  IC50: "≥ 10000 nM"
- molecule: "O=C(Nc1cccc(C2CC2(NS(=O)(=O)c2ccc(-c3cc(C(F)(F)F)on3)s2)C(=O)O)c1)N1CCOCC1 (centres unmarked)"
  IC50: "≥ 1000 nM"
- molecule: "Cc1nc(-c2ccc(S(=O)(=O)N[C@@]3(C(=O)O)C[C@@H]3c3ccccc3)s2)no1"
  IC50: "≥ 10000 nM"

====

Biological target: aggrecanase-1 (Homo sapiens)
Assay: Aggrecanase-1 inhibitory action (Particle Assay, GAG release from aggrecan-containing polyacrylamide particles)
Assay type: biochemical
Conditions: aggrecanase-1 inhibitory action; read-out: IC50 AG1 (Experimental Example 1)
pIC50: −log10 of the molar value.
measure: pIC50

- compound: "O=C(O)C1(NS(=O)(=O)c2ccc(-c3ccc(Cl)cc3)cc2)CC1c1cccc(NCc2cnc[nH]2)c1 (centres unmarked)"
  measure: "pIC50"
  endpoint-result: "> 6.00"
- compound: "Cc1ccc(-c2ccccc2C2CC2(NS(=O)(=O)c2ccc(-c3ccc(Cl)cc3)s2)C(=O)O)cc1 (centres unmarked)"
  measure: "pIC50"
  endpoint-result: "> 6.00"
- compound: "Cc1csc(-c2cccc(C3CC3(NS(=O)(=O)c3ccc(-c4ccc(Cl)cc4)s3)C(=O)O)c2)n1 (centres unmarked)"
  measure: "pIC50"
  endpoint-result: "> 7.00"
- compound: "O=C(O)C1(CS(=O)(=O)N2CCN(c3ccc(Cl)cc3)CC2)CC1c1ccccc1 (centres unmarked)"
  measure: "pIC50"
  endpoint-result: "≤ 6.00"
- compound: "O=C(O)C1(NS(=O)(=O)c2ccc(-c3ccc(Cl)cc3)s2)CC1c1cccnc1 (centres unmarked)"
  measure: "pIC50"
  endpoint-result: "> 6.00"
- compound: "C[C@@H]1[C@H](c2ccccc2)[C@]1(NS(=O)(=O)c1ccc(-c2cc(C(F)(F)F)on2)s1)C(=O)O"
  measure: "pIC50"
  endpoint-result: "> 7.00"
- compound: "C[C@]1(c2ccccc2)C[C@@]1(NS(=O)(=O)c1ccc(-c2ccc(Cl)cc2)s1)C(=O)O"
  measure: "pIC50"
  endpoint-result: "> 7.00"
- compound: "O=C(O)C1(NS(=O)(=O)N2CCc3c([nH]c4ccccc34)C2)CC1c1ccccc1 (centres unmarked)"
  measure: "pIC50"
  endpoint-result: "≤ 5.00"
- compound: "O=C(O)[C@]1(NS(=O)(=O)c2ccc(-c3nsc(CF)n3)s2)C[C@@H]1c1ccccc1"
  measure: "pIC50"
  endpoint-result: "≤ 6.00"
- compound: "CN1CCN(C(=O)OCCCc2cccc(C3CC3(NS(=O)(=O)c3ccc(-c4cc(C(F)(F)F)on4)s3)C(=O)O)c2)CC1 (centres unmarked)"
  measure: "pIC50"
  endpoint-result: "> 6.00"
- compound: "C[C@]1(c2ccccc2)C[C@@]1(NS(=O)(=O)c1ccc(-c2ccc(Cl)c(N)c2)s1)C(=O)O"
  measure: "pIC50"
  endpoint-result: "> 7.00"
- compound: "O=C(O)C1(NS(=O)(=O)N2CCN(c3ccc(F)cc3)CC2)CC1c1ccccc1 (centres unmarked)"
  measure: "pIC50"
  endpoint-result: "≤ 5.00"
- compound: "Cc1nc(-c2ccc(S(=O)(=O)N[C@@]3(C(=O)O)C[C@@H]3c3ccccc3)s2)no1"
  measure: "pIC50"
  endpoint-result: "≤ 6.00"
- compound: "CC(=O)OCCCC1(c2ccccc2)CC1(NS(=O)(=O)c1ccc(-c2cc(C(F)(F)F)on2)s1)C(=O)O (centres unmarked)"
  measure: "pIC50"
  endpoint-result: "> 7.00"
- compound: "CCNC(=O)c1ccc(S(=O)(=O)NC2(C(=O)O)CC2c2ccccc2)s1 (centres unmarked)"
  measure: "pIC50"
  endpoint-result: "≤ 5.00"
- compound: "CN(C)C(=O)c1ccccc1C1CC1(NS(=O)(=O)c1ccc(-c2ccc(Cl)cc2)s1)C(=O)O (centres unmarked)"
  measure: "pIC50"
  endpoint-result: "> 7.00"
- compound: "CCC1CC1(NS(=O)(=O)c1ccc(-c2ccc(Cl)cc2)s1)C(=O)O (centres unmarked)"
  measure: "pIC50"
  endpoint-result: "> 6.00"

src = patent US20080261994A1
